Values compiled from PubChem BioAssay (NCI).

# Test system: PC-3 prostate
# METHOD NOTES: NCI tumour cell line growth inhibition, 48 h; in the data active = GI50 below about 0.43 µM; inactive = the rest
I would appreciate it if you answered using one of these outcomes: yes for active, no for inactive

These solved cases illustrate the format of a correct answer.
>  <MOLECULE>
COc1cc2c(c(OC)c1OC)-c1c(c3ccc([N+](=O)[O-])cc3c(=O)n1CCCBr)C2=O

>  <ANSWER LABEL>
no

$$$$
>  <MOLECULE>
O=C(c1ccc2ccccc2c1)c1c(C(F)(F)F)n([O-])c2cc(C(F)(F)F)ccc2[n+]1=O

>  <ANSWER LABEL>
no

$$$$
>  <MOLECULE>
C/C(CC(C)(C)N1CC1)=N\NC(=O)Nc1cccc2ccccc12

>  <ANSWER LABEL>
no

$$$$
>  <MOLECULE>
CCN1C(=O)N(CC)C2C1NN=c1s/c(=C\c3ccc(C(F)(F)F)cc3)c(=O)n12 (configuration not stated)

>  <ANSWER LABEL>
yes

$$$$

Q) For O=C(c1ccccc1)C1OC1C(=O)c1ccccc1 (configuration not stated) , which call appears in the assay record?
A) no

Q) For `O=[N+]([O-])c1ccc(N=Nc2c(Cl)cc(O)cc2Cl)cc1` , which call appears in the assay record?
A) no

Q) For `CCOC(=O)c1c2c(n3ccc(NC(=O)CCN4CCCCC4)cc13)C(=O)c1ncccc1C2=O` , which call appears in the assay record?
A) no

* * *

# Lookup of reported TGI keyed by entry
# Tested on: SNB-78 CNS
# METHOD NOTES: NCI tumour cell line growth inhibition, 48 h

Worked cases, TGI given:
>  <COMPOUND>
O=C(C=Nc1ccccc1S)c1ccco1

>  <TESTED SYSTEM>
SNB-78 CNS

>  <TGI>
32.7 µM

$$$$
>  <COMPOUND>
CN1N=C2c3ccccc3OC(c3ccccc3)[C@H]2C1c1ccccc1 (some centres undefined)

>  <TESTED SYSTEM>
SNB-78 CNS

>  <TGI>
> 100 µM

$$$$
>  <COMPOUND>
O=C(O)CCSC(=O)Nc1cccc2ccccc12

>  <TESTED SYSTEM>
SNB-78 CNS

>  <TGI>
> 100 µM

$$$$
>  <COMPOUND>
O=c1[nH]nc(CNc2ccc(Cl)cc2Cl)c2ccccc12

>  <TESTED SYSTEM>
SNB-78 CNS

>  <TGI>
> 100 µM

$$$$
>  <COMPOUND>
O=C1CCCCN1

>  <TESTED SYSTEM>
SNB-78 CNS

>  <TGI>
> 1120 µM

$$$$
>  <COMPOUND>
CCCCCCCC(=O)OCC1OC(n2cc(F)c(=O)[nH]c2=O)C(N)C(O)C1O (centres undefined)

>  <TESTED SYSTEM>
SNB-78 CNS

>  <TGI>
> 100 µM

$$$$
>  <COMPOUND>
COc1ccc(-c2cc(=O)c3cc(Cl)ccc3[nH]2)cc1

>  <TESTED SYSTEM>
SNB-78 CNS

>  <TGI>
> 100 µM

$$$$
>  <COMPOUND>
COC(=O)N/N=C(\C)CC(=O)Nc1cccc([N+](=O)[O-])c1

>  <TESTED SYSTEM>
SNB-78 CNS

>  <TGI>
> 100 µM

$$$$
>  <COMPOUND>
CN1c2c(nc(N)[nH]c2=O)NCC1CCNc1ccc(C(=O)NC(CCC(=O)O)C(=O)O)cc1 (centres undefined)

>  <TESTED SYSTEM>
SNB-78 CNS

>  <TGI>
2660 µM

$$$$
>  <COMPOUND>
CC(=O)OC1=C2CC[C@@H]3C(CC[C@@]4(C)C3CC[C@@H]4OC(C)=O)[C@@]2(C)CC(C#N)C1=O (some centres undefined)

>  <TESTED SYSTEM>
SNB-78 CNS

>  <TGI>
90.8 µM

$$$$

Q) Specify reported TGI for the compound shown: `COc1ccc([Se][Se]c2ccc(OC)cc2OC)c(OC)c1`
A) 7.04 µM

Q) Specify reported TGI for the compound shown: `COc1ccc(-c2cc(=O)c3cc(C)c(C)c(C(=O)O)c3o2)cc1`
A) > 100 µM

Q) Specify reported TGI for the compound shown: CN/N=C(\C)C(CN1CCCCC1)C(C1=C(O)c2ccccc2OC1)c1ccccc1 (centres undefined)
A) > 100 µM

Q) Specify reported TGI for the compound shown: CCc1cccc(C(C)CC)c1NC(=O)C(=O)Cc1nc2ccccc2o1 (centres undefined)
A) > 50 µM
